Target: Non-selective voltage-gated ion channel VDAC1 (Homo sapiens) (UniProt P21796)
Sequence (P21796 whole entry): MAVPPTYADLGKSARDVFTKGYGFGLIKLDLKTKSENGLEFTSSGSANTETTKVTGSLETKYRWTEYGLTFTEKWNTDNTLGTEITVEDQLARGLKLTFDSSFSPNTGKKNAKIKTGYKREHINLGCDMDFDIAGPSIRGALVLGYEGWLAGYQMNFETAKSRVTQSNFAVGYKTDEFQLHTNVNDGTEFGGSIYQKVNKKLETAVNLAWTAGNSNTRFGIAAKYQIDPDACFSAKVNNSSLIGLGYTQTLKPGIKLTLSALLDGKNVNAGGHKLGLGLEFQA
Assay: Activation of VDAC1 channel in human A549 cells assessed as increase in mitochondrial Ca2+ endocytosis by staining based analysis
Format: cell-based
Details: filed as opener
Active and inactive are the calls of the source. The rule behind the calls is not given here.
Recorded Endpoint: Activity

Exercise: Give me measured Activity, please, for this compound: `CCCCCCCCCCCC(=O)O[C@@]12C[C@@H](C)[C@]34C=C(C)[C@H](OC(=O)c5ccc([N+](=O)[O-])cc5)[C@@]3(O)[C@H](O)C(COC(=O)c3ccc([N+](=O)[O-])cc3)=C[C@H](C4=O)[C@@H]1C2(C)C`
Key: Active

Exercise: Give me measured Activity, please, for this compound: `CCCCCCCCCCCC(=O)O[C@@]12C[C@@H](C)[C@]34C=C(C)[C@H](OC(=O)c5ccc(F)cc5)[C@@]3(O)[C@H](O)C(CO)=C[C@H](C4=O)[C@@H]1C2(C)C`
Key: Active

Exercise: Give me measured Activity, please, for this compound: `CCCCCCCCCCCC(=O)O[C@@]12C[C@@H](C)[C@]34C=C(C)[C@H](OC(=O)NCCC)[C@@]3(O)[C@H](O)C(CO)=C[C@H](C4=O)[C@@H]1C2(C)C`
Key: Active

Exercise: Give me measured Activity, please, for this compound: `CCCCCCCCCCCC(=O)O[C@@]12C[C@@H](C)[C@]34C=C(C)[C@H](O)[C@@]3(O)[C@H](O)C(CO)=C[C@H](C4=O)[C@@H]1C2(C)C`
Key: Active
